- System under test: Papain (Carica papaya)
- Sequence (P00784 whole entry): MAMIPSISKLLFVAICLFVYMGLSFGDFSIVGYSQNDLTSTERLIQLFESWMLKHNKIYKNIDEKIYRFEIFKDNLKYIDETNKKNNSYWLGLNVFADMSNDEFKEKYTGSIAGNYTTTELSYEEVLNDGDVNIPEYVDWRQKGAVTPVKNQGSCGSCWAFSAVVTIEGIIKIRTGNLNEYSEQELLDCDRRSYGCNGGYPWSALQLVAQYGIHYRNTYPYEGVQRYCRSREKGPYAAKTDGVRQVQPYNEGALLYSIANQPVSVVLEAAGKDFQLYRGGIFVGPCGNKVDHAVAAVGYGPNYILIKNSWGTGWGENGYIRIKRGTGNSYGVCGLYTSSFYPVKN
hey, just use Criterion met if measured IC50 is less than 30 µM, otherwise Criterion not met

Consider the worked cases shown below.
1) COC1=CC(=O)c2c(cc(C)c(C(C)=O)c2OC(C)=O)C1=O: Criterion not met
2) O=C1C(=O)c2ccccc2-c2ccccc21: Criterion not met
3) O=C1C=CC(=O)c2c1ccc1c2ccc2ccccc21: Criterion met
4) COC1=CC(=O)c2c(cc(C)c(C(C)=O)c2O)C1=O: Criterion met

I'd appreciate it if you could check whether O=C1C=CC(=O)c2ccccc21 has IC50 smaller than 30 µM.
Criterion met

Please give the result for O=C1C=Cc2ccccc2C1=O too.
Criterion not met
